# experimental_target: aldose reductase (Rattus norvegicus, UniProt P07943)
# Construct: their crystalline lenses were immediately removed and stored at -80° C; The lenses were homogenized; from tissue; host or cells: crystalline lens of six-week-old male SD rats (homogenate supernatant, dialysed)
# experimental_details: Aldose Reductase Inhibition Test (Experiment 1)
# Format: biochemical, rat (male SD rat crystalline lens)
# study_conditions: final concentration 5×10^-5 M (values without asterisk); DL-glycerine aldehyde 10 mM, pH 6.2, 30° C., 5 min
Quick reference: inhibition at 50 µM of the listed items.
Express the result in % but write the number alone.

Answered cases to consult:
{"columns": ["smiles_representation", "inhibition at 50 µM, %"],
 "data": [
  ["O=C(O)CCn1nnnc1-c1ccccc1", 80],
  ["COC(=O)Cn1nnnc1-c1ccc([N+](=O)[O-])cc1", 44],
  ["COC(=O)Cn1nnnc1-c1ccc(OC)cc1", 43],
  ["CCCCOC(=O)C(=O)Nc1cccc(-c2nnnn2CC(=O)OCC)c1", 52],
  ["COC(=O)Cn1nnnc1-c1cccc(C)c1", 44]
]}

// query Which value of inhibition at 50 µM has been reported for `O=C(O)C(=O)Nc1cccc(-c2nnn[nH]2)c1` in the records?
// result 63

// query Next compound up: `CCCCOC(=O)C(=O)Nc1cccc(-c2nnn[nH]2)c1`
// result 58

// query Similarly, `COC(=O)Cn1nnnc1-c1ccc(Cl)c([N+](=O)[O-])c1` ?
// result 42

// query Query `O=C(O)CCCn1nnnc1-c1ccccc1` next
// result 79

// query Repeat for the following compound: `COC(=O)Cn1nnnc1-c1ccc(-c2nnnn2CC(=O)OC)cc1`
// result 36

// query `COC(=O)Cn1nnnc1-c1ccc(Cl)cc1` ?
// result 31

// query Ok, now `CCCCOC(=O)C(=O)Nc1ccccc1-c1nnn[nH]1`
// result 69

Just for reference, patent USRE35281E is where these values come from.
